target: Recombinant human IL-2 (human, UniProt P60568 21-153); experiment: cell-based or functional assay
parameter-measured: EC50 of IL-2-induced pSTAT5a,b in NK-92 cells with 100 nM antibody (pM)

binder	recorded-value
XPA.92.019 (antibody, V domains shown, Tested as purified full-length human IgG; also called mAb19) VH: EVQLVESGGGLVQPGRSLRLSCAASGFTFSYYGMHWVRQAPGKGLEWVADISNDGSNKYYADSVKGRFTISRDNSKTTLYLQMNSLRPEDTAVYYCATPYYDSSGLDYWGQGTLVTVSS VL: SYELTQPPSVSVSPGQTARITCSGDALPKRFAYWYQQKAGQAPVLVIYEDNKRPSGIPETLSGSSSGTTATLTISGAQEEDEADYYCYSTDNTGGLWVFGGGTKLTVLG	900
XPA.92.041 (antibody, V domains shown, Tested as purified full-length human IgG) VH: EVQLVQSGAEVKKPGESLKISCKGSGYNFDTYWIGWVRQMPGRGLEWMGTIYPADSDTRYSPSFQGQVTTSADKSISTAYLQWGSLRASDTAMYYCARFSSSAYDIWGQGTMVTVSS VL: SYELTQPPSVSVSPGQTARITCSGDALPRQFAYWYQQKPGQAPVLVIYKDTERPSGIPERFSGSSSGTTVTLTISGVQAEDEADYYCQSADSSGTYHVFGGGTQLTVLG	1150
XPA.92.099 (antibody, V domains shown, Tested as purified full-length human IgG; also called mAb99; clone 99) VH: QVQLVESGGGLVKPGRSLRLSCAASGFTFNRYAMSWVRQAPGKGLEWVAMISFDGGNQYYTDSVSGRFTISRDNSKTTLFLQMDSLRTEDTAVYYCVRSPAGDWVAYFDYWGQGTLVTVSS VL: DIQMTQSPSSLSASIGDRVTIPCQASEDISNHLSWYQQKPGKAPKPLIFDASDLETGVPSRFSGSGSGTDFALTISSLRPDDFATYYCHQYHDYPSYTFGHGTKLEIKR	463

Value source: patent US20180094053A1
